meta.source: paper PMC4388757

- PROTOCOL DETAILS: Bioavailability studies of VAS (unpublished data of the laboratory)
- APPLIED CONDITIONS: in vivo; after intravenous administration; no published data; read-out: elimination half-life (converted)

[
  {
    "MOLECULE": "O[C@H]1CCN2Cc3ccccc3N=C12 [Metabolite M0, Vasicine]",
    "half-life": "~5 h"
  }
]

====

- PROTOCOL DETAILS: Bioavailability studies of VAS (unpublished data of the laboratory)
- APPLIED CONDITIONS: in vivo; after oral administration; no published data; read-out: elimination half-life (converted)

[
  {
    "COMPOUND": "O[C@H]1CCN2Cc3ccccc3N=C12 [Metabolite M0, Vasicine]",
    "half-life": "~1.5 h"
  }
]

====

- TARGET OR SYSTEM: AChE from Electrophorus electricus (Electrophorus electricus, UniProt O42275)
- Construct: purchased Sigma Aldrich Co. (St. Louis, MO, USA)
- Sequence (O42275 24-633): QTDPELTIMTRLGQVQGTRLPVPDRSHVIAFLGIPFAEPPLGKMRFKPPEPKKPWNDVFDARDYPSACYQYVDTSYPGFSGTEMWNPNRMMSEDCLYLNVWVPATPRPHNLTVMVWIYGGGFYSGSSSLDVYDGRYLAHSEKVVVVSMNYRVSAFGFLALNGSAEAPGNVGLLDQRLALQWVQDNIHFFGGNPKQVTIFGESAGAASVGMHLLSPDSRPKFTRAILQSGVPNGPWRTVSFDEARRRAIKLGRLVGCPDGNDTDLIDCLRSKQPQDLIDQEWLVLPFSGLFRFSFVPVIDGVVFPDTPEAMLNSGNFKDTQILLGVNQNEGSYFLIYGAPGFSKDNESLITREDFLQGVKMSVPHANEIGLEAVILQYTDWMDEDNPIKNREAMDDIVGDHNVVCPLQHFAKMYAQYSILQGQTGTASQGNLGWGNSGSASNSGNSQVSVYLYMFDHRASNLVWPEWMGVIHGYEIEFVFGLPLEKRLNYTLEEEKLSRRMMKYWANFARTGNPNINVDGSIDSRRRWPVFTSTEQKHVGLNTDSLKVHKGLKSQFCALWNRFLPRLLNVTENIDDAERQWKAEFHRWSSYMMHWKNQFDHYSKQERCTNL
- PROTOCOL DETAILS: biochemical
- Format: biochemical
OUTCOME MEASURE: SI (AChE selectivity index, IC50 BChE/IC50 AChE)

[
  {
    "COMPOUND": "O=c1c2ccccc2nc2n1CCC2O (stereo not shown) [Metabolite M1, vasicinone]",
    "NUMERIC VALUE": 0.133
  },
  {
    "COMPOUND": "O=C(O)C1OC(OC2CCN3Cc4ccccc4N=C23)C(O)C(O)C1O (stereo not shown) [Metabolite M20-2]",
    "NUMERIC VALUE": 4.998
  },
  {
    "COMPOUND": "Oc1ccc2c(c1)CN1CCC(O)C1=N2 (stereo not shown) [Metabolite M3-2, vasicinol]",
    "NUMERIC VALUE": 0.930
  },
  {
    "COMPOUND": "O=c1c2cc(O)ccc2nc2n1CCC2O (stereo not shown) [Metabolite M5-2, vasicinolone]",
    "NUMERIC VALUE": 1.545
  },
  {
    "COMPOUND": "O=c1c2ccccc2nc2n1CCC2OS(=O)(=O)O (stereo not shown) [Metabolite M16]",
    "NUMERIC VALUE": 0.069
  },
  {
    "COMPOUND": "O=S(=O)(O)OC1CCN2Cc3ccccc3N=C12 (stereo not shown) [Metabolite M15]",
    "NUMERIC VALUE": 0.198
  },
  {
    "COMPOUND": "O[C@H]1CCN2Cc3ccccc3N=C12 [Metabolite M0, Vasicine]",
    "NUMERIC VALUE": 0.030
  }
]

====

- TARGET OR SYSTEM: AChE from Electrophorus electricus (Electrophorus electricus, UniProt O42275)
- Construct: purchased Sigma Aldrich Co. (St. Louis, MO, USA)
- PROTOCOL DETAILS: biochemical
- Format: biochemical
- APPLIED CONDITIONS: means ± SD of three replicate determinations
OUTCOME MEASURE: log10 IC50 (log10 of the value in µM)

[
  {
    "COMPOUND": "Oc1ccc2c(c1)CN1CCC(O)C1=N2 (stereo not shown) [Metabolite M3-2, vasicinol]",
    "log10 IC50": 0.42
  },
  {
    "COMPOUND": "O=c1c2ccccc2nc2n1CCC2OS(=O)(=O)O (stereo not shown) [Metabolite M16]",
    "log10 IC50": 2.60
  },
  {
    "COMPOUND": "O[C@H]1CCN2Cc3ccccc3N=C12 [Metabolite M0, Vasicine]",
    "log10 IC50": 0.53
  },
  {
    "COMPOUND": "O=c1c2ccccc2nc2n1CCC2O (stereo not shown) [Metabolite M1, vasicinone]",
    "log10 IC50": 1.88
  },
  {
    "COMPOUND": "O=c1c2cc(O)ccc2nc2n1CCC2O (stereo not shown) [Metabolite M5-2, vasicinolone]",
    "log10 IC50": 1.67
  },
  {
    "COMPOUND": "O=S(=O)(O)OC1CCN2Cc3ccccc3N=C12 (stereo not shown) [Metabolite M15]",
    "log10 IC50": 1.70
  },
  {
    "COMPOUND": "O=C(O)C1OC(OC2CCN3Cc4ccccc4N=C23)C(O)C(O)C1O (stereo not shown) [Metabolite M20-2]",
    "log10 IC50": 1.32
  }
]
